Molecular target: SARS-CoV1 Spike [change] (SARS-CoV-1, UniProt P59594 14-667)
Assay: Octet BLI, IgG, monovalent
measuredQuantity: binding result

Q: Retrieve binding result measured for A-5 (antibody, V domains shown) VH: QVQLVESGGGLIQPGESLRLSCAASEFIVSRNYMSWVRQAPGKGLEWVSVIYSGGNTYYADSVKGRFTISRDNSKNTLYLQMNSLRAEDTAVYYCARDLRGPGCFDFWGQGTTVTVSS VL: DIQVTQSPSSLSASVGDRVTITCQASQDISNFLNWYQQKPGKAPKLLIYDASNLETGVPSRFSASGSGTEFTFTISSLQPEDIATYYCQQYDNLRVTFGGGTKLEIK and print it.
A: no binding

Q: Could you please provide reported binding result for A-14 (antibody, V domains shown) VH: EVQLVESGGGVVQPGRSLRLSCAASGFTFSTYGMHWVRQAPGKGLEWVAVIWYDGSNKYYADSVKGRFTISRDNSKNTLYLQMNSLRAEDTAVYYCARSVDGDYLEYFQHWGQGTLVTVSS VL: QPVLTQPRSVSGSPGQSVTISCTGTSSDVGGYNYVSWYQQHPGKAPKLMIYDVSKRPSGVPDRFSGSKSGNTASLTISGLQAEDEADYYCCSYAGGYTNYVFGTGTKLTVL ? Thanks!
A: no binding

Origin of measurements: patent US20260217797A1
